assay: RP, Waters ACQUITY UPLC BEH C18, 100 × 1 mm, 1.7 µm, 50 °C, 0.3 mL/min, estimated dead time 0.17 min; A: water + 10 mM ammonium bicarbonate; B: 10% water + 90% methanol + 10 mM ammonium bicarbonate; gradient (min/%B) 0/0 15/100 21/100 22/0 30/0; details: stereoisomer not certain
observable: LC retention time (min)

[[record]]
compound = "CCCCCCCCCCOC(=O)c1ccccc1C(=O)OCCCCCCCCCC"
observable = "LC retention time"
outputunit = "min"
measuredvalue = 21.4

[[record]]
compound = "CC12CCC(=O)C=C1CCC1C2CCC2(C)C1CCC2(C)O (stereo not drawn)"
observable = "LC retention time"
outputunit = "min"
measuredvalue = 15

[[record]]
compound = "COc1ccc2c(c1O)-c1c(OC)c(OC)cc3c1C(C2)N(C)CC3 (single isomer, unassigned; (+)) [(+)-Isocorydin]"
observable = "LC retention time"
outputunit = "min"
measuredvalue = 13.6

[[record]]
compound = "Fc1ccc(C2CCNCC2COc2ccc3c(c2)OCO3)cc1 (stereo not drawn)"
observable = "LC retention time"
outputunit = "min"
measuredvalue = 15

[[record]]
compound = "CC12C=CC(=O)C=C1CCC1C2C(=O)CC2(C)C1CCC2(O)C(=O)CO (stereo not drawn)"
observable = "LC retention time"
outputunit = "min"
measuredvalue = 12.2

[[record]]
compound = "COCN(COC)c1nc(N(COC)COC)nc(N(COC)COC)n1"
observable = "LC retention time"
outputunit = "min"
measuredvalue = 12.9

[[record]]
compound = "CCOP(=S)(OCC)SCSP(=S)(OCC)OCC"
observable = "LC retention time"
outputunit = "min"
measuredvalue = 17.3

[[record]]
compound = "CN1C(=O)CN=C(c2ccccc2)c2cc(Cl)ccc21"
observable = "LC retention time"
outputunit = "min"
measuredvalue = 14.6

